Taken from paper PMC11588046.

Biological target: WT ALK2 (Homo sapiens)
Sequence (Q04771 21-509): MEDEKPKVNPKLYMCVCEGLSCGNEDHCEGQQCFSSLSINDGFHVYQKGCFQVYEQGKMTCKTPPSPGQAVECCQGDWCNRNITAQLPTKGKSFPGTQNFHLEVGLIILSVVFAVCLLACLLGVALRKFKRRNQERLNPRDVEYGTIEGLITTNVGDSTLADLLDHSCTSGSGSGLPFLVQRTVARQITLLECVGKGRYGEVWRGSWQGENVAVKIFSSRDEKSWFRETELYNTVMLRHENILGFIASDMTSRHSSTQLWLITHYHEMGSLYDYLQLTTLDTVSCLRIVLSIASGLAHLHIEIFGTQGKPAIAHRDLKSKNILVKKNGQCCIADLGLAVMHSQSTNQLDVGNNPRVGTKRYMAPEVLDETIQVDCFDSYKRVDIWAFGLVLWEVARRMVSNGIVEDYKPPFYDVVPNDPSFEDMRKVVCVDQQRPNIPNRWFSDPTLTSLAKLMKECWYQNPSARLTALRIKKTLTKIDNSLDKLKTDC
Settings: read-out: ALK2 IC50; NanoBRET, HEK293 cells
pIC50: −log10 of the molar value.
Result Type: pIC50

# annotated cases, reported pIC50 shown
structure_string=CNC(=O)[C@H]1C[C@H](n2c(-c3ccc(OC)c(OC)c3)nc3ccc(C(=O)NCCCN4CCN(c5cccc(C)c5C)CC4)cc32)C1 measured_value=5.91
structure_string=COc1cc(-c2nc3ccc(C(=O)NCC4(O)CCN(Cc5ccccc5)CC4)cc3n2C2CCC2)cc(OC)c1OC measured_value=6.41

[I] COc1cc(-c2nc3ccc(C(=O)NCCCN4CCN(c5ccccc5)CC4)cc3n2C2CCC2)cc(OC)c1OC
[II] CNC(=O)[C@H]1C[C@H](n2c(-c3cc(F)cc(OC)c3)nc3ccc(C(=O)NCCCN4CCN(c5ccccc5)CC4)cc32)C1
Req: Which of the two gives a bigger number for pIC50: I or II ? Identify your pick by its label.
Resp: I

----------
Target: mutant ALK2 (R206H) (Homo sapiens, UniProt Q04771, R206H)
Settings: read-out: ALK2 (R206H) IC50; NanoBRET, HEK293 cells
Result Type: IC50 (µM)

[a] CNC(=O)[C@H]1C[C@H](n2c(-c3cc(F)cc(OC)c3)nc3ccc(C(=O)NCCCN4CCN(c5ccccc5)CC4)cc32)C1
[b] COc1cc(-c2nc3ccc(C(=O)NCC4(O)CCN(Cc5ccccc5)CC4)cc3n2C2CCC2)cc(OC)c1OC
[c] COc1cc(-c2nc3ccc(C(=O)NCCCN4CCN(c5ccccc5)CC4)cc3n2C2CCC2)cc(OC)c1OC
[d] CNC(=O)[C@H]1C[C@H](n2c(-c3ccc(OC)c(OC)c3)nc3ccc(C(=O)NCCCN4CCN(c5cccc(C)c5C)CC4)cc32)C1
Req: Please list the entries, largest IC50 first. Please list each label once, in the requested order.
Resp: a, d, c, b
